Listing of entries alongside the reported melting point.

Solved cases below.
{"columns": ["Compound", "melting point"],
 "data": [
  ["O=C1C(Cc2ccccc2)C(C(F)(F)F)Nc2ccccc2N1Cc1ccccc1 (stereo not given)", "150 to 151 °C"],
  ["O=C(O)CCCc1cc2nc(Cl)ccc2n1S(=O)(=O)c1ccc2c(c1)OCCO2", "166 °C"],
  ["COCc1c(C(=O)OC(C)(C)C)ncc2[nH]c3ccc(OCc4ccccc4)cc3c12", "160 to 167 °C"],
  ["COc1ccc(S(=O)(=O)Nc2cccnc2Nc2ccccc2C)cc1", "80 to 81 °C"],
  ["Cc1noc(NS(=O)(=O)c2ccc(Nc3ccc([N+](=O)[O-])cc3[N+](=O)[O-])cc2)c1C", "187 °C"],
  ["N#Cc1ccc(-c2cc(=O)c3cccnc3o2)cc1", "250 to 252 °C"]
]}

Q: Record request: melting point value, item O=C(O)c1ccc(NCCOc2ccccc2)cc1
Result: 172 to 175 °C

Q: Please give the result for Nc1cc(Cl)c(Cl)cc1-n1cccc1 too.
Result: 57 to 58 °C

Q: Please give the result for CN1C(=O)C=C(c2ccc3c(c2)OCO3)C1=O too.
Result: 210 to 215 °C

Q: Please give the result for COC(=O)c1cccc2c(=O)c3cccc(I)c3[nH]c12 too.
Result: 174 to 176 °C
